From: patent US20190367631A1

# target-system: T1, human MSR1 extracellular domain expressed with a N-terminal nonahistidine tag (His9-hMSR1); R&D Systems, Cat … (human, UniProt P21757 77-451)
# T1 construct: extracellular domain; Bought reagent; also called His-hMSR1; 9xHis-hMSR1
# T1 sequence: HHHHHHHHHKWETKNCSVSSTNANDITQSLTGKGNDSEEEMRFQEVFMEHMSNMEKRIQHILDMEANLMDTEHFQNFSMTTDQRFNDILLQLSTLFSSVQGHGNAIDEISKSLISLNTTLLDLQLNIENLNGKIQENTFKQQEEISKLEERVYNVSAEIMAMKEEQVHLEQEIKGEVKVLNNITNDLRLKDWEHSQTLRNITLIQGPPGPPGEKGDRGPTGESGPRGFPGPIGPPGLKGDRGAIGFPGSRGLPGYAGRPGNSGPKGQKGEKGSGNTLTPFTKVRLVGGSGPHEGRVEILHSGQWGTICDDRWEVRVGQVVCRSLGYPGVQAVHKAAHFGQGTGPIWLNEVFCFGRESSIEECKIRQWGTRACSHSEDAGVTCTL
# method-notes: SPR Biacore T200, 25 C, antibody captured by anti-human Fc, His9-hMSR1 injected;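 note: running buffer HBS-ET pH 7.4, rates from sensorgrams fitted to a 1:1 model including mass transport limitation, KD and half-life derived from the kinetic constants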
result-type: koff
Please answer using a numeric value trailed by its unit.

Answer for every listed entry: what is its koff? The entries follow.
1. H1H27739P-N297Q (antibody, human IgG1, V domains shown, human IgG1 Fc with N297Q (EU)) VH: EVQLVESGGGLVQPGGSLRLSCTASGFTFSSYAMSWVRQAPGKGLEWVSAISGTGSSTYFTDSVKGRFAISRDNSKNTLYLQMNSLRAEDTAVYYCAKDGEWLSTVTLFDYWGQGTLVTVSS VL: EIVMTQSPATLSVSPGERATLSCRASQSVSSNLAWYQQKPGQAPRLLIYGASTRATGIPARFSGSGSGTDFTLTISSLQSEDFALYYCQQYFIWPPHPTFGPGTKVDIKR
2. H1H27747P-N297Q-LP1 (antibody, human IgG1, V domains shown, LXR agonist linker-payload LP1 clicked to azido-PEG3-amine on Q295 and Q297 (EU) of the heavy chain constant region, antibody-drug conjugate; human IgG1 Fc with N297Q (EU); also called H1H27747P-LP1) VH: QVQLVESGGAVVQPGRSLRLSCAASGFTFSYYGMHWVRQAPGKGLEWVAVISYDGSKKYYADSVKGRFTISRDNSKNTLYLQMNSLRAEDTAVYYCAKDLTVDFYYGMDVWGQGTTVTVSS VL: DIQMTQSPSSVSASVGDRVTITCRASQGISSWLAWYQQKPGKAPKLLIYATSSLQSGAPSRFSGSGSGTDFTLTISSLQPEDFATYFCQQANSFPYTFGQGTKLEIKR
3. H1H27739P-N297Q-LP1 (antibody, human IgG1, V domains shown, LXR agonist linker-payload LP1 clicked to azido-PEG3-amine on Q295 and Q297 (EU) of the heavy chain constant region, antibody-drug conjugate; human IgG1 Fc with N297Q (EU); also called H1H27739P-LP1) VH: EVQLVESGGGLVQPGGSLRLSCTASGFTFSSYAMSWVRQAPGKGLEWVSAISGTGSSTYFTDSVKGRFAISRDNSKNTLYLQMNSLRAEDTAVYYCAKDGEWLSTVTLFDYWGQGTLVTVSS VL: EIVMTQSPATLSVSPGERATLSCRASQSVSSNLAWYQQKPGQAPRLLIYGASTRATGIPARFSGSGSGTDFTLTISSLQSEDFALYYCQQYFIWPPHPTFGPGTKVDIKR
4. H1H27729P-N297Q (antibody, human IgG1, V domains shown, human IgG1 Fc with N297Q (EU)) VH: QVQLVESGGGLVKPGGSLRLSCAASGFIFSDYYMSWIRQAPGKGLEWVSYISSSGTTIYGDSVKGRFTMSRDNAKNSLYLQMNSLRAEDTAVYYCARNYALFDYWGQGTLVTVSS VL: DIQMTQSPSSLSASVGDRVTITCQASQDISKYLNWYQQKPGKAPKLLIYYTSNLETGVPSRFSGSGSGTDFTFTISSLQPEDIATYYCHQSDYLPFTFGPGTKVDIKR
5. H1H27734P-N297Q-LP1 (antibody, human IgG1, V domains shown, LXR agonist linker-payload LP1 clicked to azido-PEG3-amine on Q295 and Q297 (EU) of the heavy chain constant region, antibody-drug conjugate; human IgG1 Fc with N297Q (EU); also called H1H27734P-LP1) VH: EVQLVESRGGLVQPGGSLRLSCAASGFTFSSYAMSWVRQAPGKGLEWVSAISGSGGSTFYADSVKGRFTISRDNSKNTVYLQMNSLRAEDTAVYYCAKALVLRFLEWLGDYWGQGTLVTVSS VL: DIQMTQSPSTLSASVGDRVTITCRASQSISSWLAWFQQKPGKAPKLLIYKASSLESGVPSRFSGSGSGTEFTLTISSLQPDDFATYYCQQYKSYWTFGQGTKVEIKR

["0.000555 s⁻¹", "0.000203 s⁻¹", "0.000722 s⁻¹", "0.000906 s⁻¹", "0.000449 s⁻¹"]
